Data origin, for the record: paper PMC6681021

assay: Hepatic first-pass effect: 30-min intravenous vs intraportal infusion in rats; assay type: in vivo, Sprague-Dawley rats; conditions: Sprague-Dawley, rat, plasma; 30-min intraportal infusion, 10 mg/kg (n = 7)
readout: CL renal (mL/min/kg)

querySmiles	readout	val
C[C@@H]1CCN(C(=O)CC#N)C[C@@H]1N(C)c1ncnc2[nH]ccc12	CL renal	5

###

experiment: Gastric and intestinal first-pass effect: intraportal infusion, intraduodenal and intragastric instillation in rats; type: in vivo, Sprague-Dawley rats; conditions: Sprague-Dawley, rat, plasma, 10 mg/kg, 30-min intraportal infusion, 10 mg/kg (n = 6)
readout: CL renal (mL/min/kg)

querySmiles	valueUnit	val
C[C@@H]1CCN(C(=O)CC#N)C[C@@H]1N(C)c1ncnc2[nH]ccc12	mL/min/kg	2.44

###

Assay: Pharmacokinetics after 1-min intravenous infusion of tofacitinib to rats
Format: in vivo, Sprague-Dawley rats
Details: Sprague-Dawley, rat, plasma; iv 50 mg/kg
Method: The pretreatment and surgical procedures for oral and intravenous administration were similar to those described previously. For oral administration, the rats were fasted overnight with free access to water. […] The mobile phase consisted of a 69.5:30.5 (v/v) mixture of 10 mM ammonium acetate buffer (pH 5.0) and acetonitrile, respectively, with a flow rate of 1.0 mL/min. Column effluent was monitored by a UV detector at 287 nm. […]

compound	clearance, mL/min/kg
C[C@@H]1CCN(C(=O)CC#N)C[C@@H]1N(C)c1ncnc2[nH]ccc12 [tofacitinib]	14.5

###

assay: Gastric and intestinal first-pass effect: intraportal infusion, intraduodenal and intragastric instillation in rats; format: in vivo, Sprague-Dawley rats; conditions: Sprague-Dawley, rat, plasma, 10 mg/kg, 30-min intraportal infusion, 10 mg/kg (n = 6), fasted

querySmiles	AUC, ng·h/mL
C[C@@H]1CCN(C(=O)CC#N)C[C@@H]1N(C)c1ncnc2[nH]ccc12	4530

###

assay: Hepatic first-pass effect: 30-min intravenous vs intraportal infusion in rats; assay type: in vivo, Sprague-Dawley rats; settings: Sprague-Dawley, rat, plasma; 30-min intravenous infusion, 10 mg/kg

querySmiles	valueUnit	AUC
C[C@@H]1CCN(C(=O)CC#N)C[C@@H]1N(C)c1ncnc2[nH]ccc12	ng·h/mL	6950

###

Assay: Pharmacokinetics after 1-min intravenous infusion of tofacitinib to rats
Format: in vivo, Sprague-Dawley rats
Conditions: rat, plasma; 1-min iv infusion, 50 mg/kg, male Sprague-Dawley rats
Procedure: The pretreatment and surgical procedures for oral and intravenous administration were similar to those described previously. For oral administration, the rats were fasted overnight with free access to water. […] The mobile phase consisted of a 69.5:30.5 (v/v) mixture of 10 mM ammonium acetate buffer (pH 5.0) and acetonitrile, respectively, with a flow rate of 1.0 mL/min. Column effluent was monitored by a UV detector at 287 nm. […]
readout: AUC (ng·h/mL)

querySmiles	valueUnit	val
C[C@@H]1CCN(C(=O)CC#N)C[C@@H]1N(C)c1ncnc2[nH]ccc12	ng·h/mL	58800

###

experiment: Gastric and intestinal first-pass effect: intraportal infusion, intraduodenal and intragastric instillation in rats; type: in vivo, Sprague-Dawley rats; settings: Sprague-Dawley, rat, plasma, po, 10 mg/kg, intragastric instillation

compound	Cmax
C[C@@H]1CCN(C(=O)CC#N)C[C@@H]1N(C)c1ncnc2[nH]ccc12 [tofacitinib]	716 ng/mL

###

assay: Gastric and intestinal first-pass effect: intraportal infusion, intraduodenal and intragastric instillation in rats; format: in vivo, Sprague-Dawley rats; settings: Sprague-Dawley, rat, plasma, 10 mg/kg, 30-min intraportal infusion, 10 mg/kg (n = 6)

compound	valueUnit	Cmax
C[C@@H]1CCN(C(=O)CC#N)C[C@@H]1N(C)c1ncnc2[nH]ccc12 [tofacitinib]	ng/mL	5180

###

Assay: Pharmacokinetics after 1-min intravenous infusion of tofacitinib to rats
Format: in vivo, Sprague-Dawley rats
Settings: male, Sprague-Dawley, rat, plasma; iv 50 mg/kg; read-out: Terminal half-life
Method: The pretreatment and surgical procedures for oral and intravenous administration were similar to those described previously. For oral administration, the rats were fasted overnight with free access to water. […] The mobile phase consisted of a 69.5:30.5 (v/v) mixture of 10 mM ammonium acetate buffer (pH 5.0) and acetonitrile, respectively, with a flow rate of 1.0 mL/min. Column effluent was monitored by a UV detector at 287 nm. […]

querySmiles	half-life (h)
C[C@@H]1CCN(C(=O)CC#N)C[C@@H]1N(C)c1ncnc2[nH]ccc12	1.63

###

Test: Pharmacokinetics after 1-min intravenous infusion of tofacitinib to rats
Type: in vivo, Sprague-Dawley rats
Details: male, Sprague-Dawley, rat, plasma; iv 50 mg/kg
Procedure: The pretreatment and surgical procedures for oral and intravenous administration were similar to those described previously. For oral administration, the rats were fasted overnight with free access to water. […] The mobile phase consisted of a 69.5:30.5 (v/v) mixture of 10 mM ammonium acetate buffer (pH 5.0) and acetonitrile, respectively, with a flow rate of 1.0 mL/min. Column effluent was monitored by a UV detector at 287 nm. […]
readout: MRT (h)

compound	val
C[C@@H]1CCN(C(=O)CC#N)C[C@@H]1N(C)c1ncnc2[nH]ccc12 [tofacitinib]	1.75

###

Test: Hepatic first-pass effect: 30-min intravenous vs intraportal infusion in rats
Type: in vivo, Sprague-Dawley rats
Conditions: Sprague-Dawley, rat, plasma; 30-min intraportal infusion, 10 mg/kg (n = 7); read-out: Terminal half-life
Experimental: The carotid artery and jugular vein were handled as described previously. […] Pharmacokinetic parameters, including AUC, apparent volume of distribution at steady state (Vss), mean residence time (MRT), and time-averaged total body (CL), renal (CLR), and nonrenal (CLNR) clearances, were calculated by noncompartmental analysis (WinNonlin, Pharsight Corporation, Mountain View, CA, USA) using standard methods. AUC values were calculated using the trapezoidal rule–extrapolation method. […]

querySmiles	half-life / min
C[C@@H]1CCN(C(=O)CC#N)C[C@@H]1N(C)c1ncnc2[nH]ccc12	42.4

###

assay: Gastric and intestinal first-pass effect: intraportal infusion, intraduodenal and intragastric instillation in rats; assay type: in vivo, Sprague-Dawley rats; conditions: Sprague-Dawley, rat, plasma, 10 mg/kg, 30-min intraportal infusion, 10 mg/kg (n = 6)

querySmiles	valueUnit	Tmax
C[C@@H]1CCN(C(=O)CC#N)C[C@@H]1N(C)c1ncnc2[nH]ccc12	min	27.5

###

assay: Hepatic first-pass effect: 30-min intravenous vs intraportal infusion in rats; format: in vivo, Sprague-Dawley rats; settings: Sprague-Dawley, rat, plasma; 30-min intraportal infusion, 10 mg/kg (n = 7)
readout: AUC (ng·h/mL)

querySmiles	valueUnit	val
C[C@@H]1CCN(C(=O)CC#N)C[C@@H]1N(C)c1ncnc2[nH]ccc12	ng·h/mL	4030

###

test: Pharmacokinetics after oral administration of tofacitinib to rats; assay type: in vivo, Sprague-Dawley rats; conditions: male, Sprague-Dawley, rat, plasma; oral 20 mg/kg

querySmiles	Cmax
C[C@@H]1CCN(C(=O)CC#N)C[C@@H]1N(C)c1ncnc2[nH]ccc12	3130 ng/mL

###

assay: Gastric and intestinal first-pass effect: intraportal infusion, intraduodenal and intragastric instillation in rats; type: in vivo, Sprague-Dawley rats; settings: Sprague-Dawley, rat, plasma; 30-min intraportal infusion, 10 mg/kg (n = 6); read-out: Vss

compound	Vd / L/kg
C[C@@H]1CCN(C(=O)CC#N)C[C@@H]1N(C)c1ncnc2[nH]ccc12 [tofacitinib]	1.9

###

experiment: Pharmacokinetics after 1-min intravenous infusion of tofacitinib to rats; format: in vivo, Sprague-Dawley rats; details: male, Sprague-Dawley, rat, plasma; iv 10 mg/kg
readout: clearance (mL/min/kg)

compound	readout	val
C[C@@H]1CCN(C(=O)CC#N)C[C@@H]1N(C)c1ncnc2[nH]ccc12 [tofacitinib]	clearance	29.5

###

Assay: Gastric and intestinal first-pass effect: intraportal infusion, intraduodenal and intragastric instillation in rats
Type: in vivo, Sprague-Dawley rats
Settings: Sprague-Dawley, rat, plasma, 10 mg/kg, intraduodenal instillation
Text: Rats were fasted overnight with free access to water. Cannulae were inserted into the carotid artery and the cecal vein [13, 14]. […] All sample collection and processing procedures were identical to those described above. […]
readout: CL renal (mL/min/kg)

molecule	val
C[C@@H]1CCN(C(=O)CC#N)C[C@@H]1N(C)c1ncnc2[nH]ccc12 [tofacitinib]	5.72

###

experiment: Gastric and intestinal first-pass effect: intraportal infusion, intraduodenal and intragastric instillation in rats; assay type: in vivo, Sprague-Dawley rats; settings: Sprague-Dawley, rat, plasma, 10 mg/kg, intraduodenal instillation

molecule	Tmax
C[C@@H]1CCN(C(=O)CC#N)C[C@@H]1N(C)c1ncnc2[nH]ccc12 [tofacitinib]	38.8 min

###

experiment: Hepatic first-pass effect: 30-min intravenous vs intraportal infusion in rats; assay type: in vivo, Sprague-Dawley rats; conditions: Sprague-Dawley, rat, plasma; 30-min intravenous infusion, 10 mg/kg; read-out: Terminal half-life

molecule	half-life, min
C[C@@H]1CCN(C(=O)CC#N)C[C@@H]1N(C)c1ncnc2[nH]ccc12 [tofacitinib]	46.2

###

Experiment: Pharmacokinetics after 1-min intravenous infusion of tofacitinib to rats
Type: in vivo, Sprague-Dawley rats
Conditions: rat, plasma; 1-min iv infusion, 5 mg/kg, male Sprague-Dawley rats
Experimental: The pretreatment and surgical procedures for oral and intravenous administration were similar to those described previously. For oral administration, the rats were fasted overnight with free access to water. […] The mobile phase consisted of a 69.5:30.5 (v/v) mixture of 10 mM ammonium acetate buffer (pH 5.0) and acetonitrile, respectively, with a flow rate of 1.0 mL/min. Column effluent was monitored by a UV detector at 287 nm. […]

querySmiles	AUC / µg·h/mL
C[C@@H]1CCN(C(=O)CC#N)C[C@@H]1N(C)c1ncnc2[nH]ccc12	2.35
